meta.source: patent US20250352555A1

Test: Systemic pharmacokinetics after oral (PO) and intraperitoneal (IP) administration
Type: in vivo
Conditions: male, CD-1, mouse, plasma, po, 30 mg/kg, Formulation 1 (G1), male CD-1 mice
recorded-endpoint: Tmax (min)
// units = min; emit number, no label

Task: Return reported Tmax; argument: CCOC(=O)Nc1ccc2c(c1)C(=O)N(CC)c1ccccc1O2
Output: 15

* * *

Assay: Systemic pharmacokinetics after oral (PO) and intraperitoneal (IP) administration
Assay type: in vivo
Details: male, CD-1, mouse, plasma, ip, 30 mg/kg, Formulation 3 (G6), male CD-1 mice
recorded-endpoint: Tmax (min)
Please give a number only; it is taken to be in min.

Task: Please report the recorded Tmax for CCOC(=O)Nc1ccc2c(c1)C(=O)N(CC)c1ccccc1O2 .
Output: 30
